Recorded cell viability by entry
- Tested on: Vero E6
- Test protocol: cell viability relative to DMSO; higher = less toxic
- Experimental parameters: 72 h; 10 nM
Quick note: give the figure in %, leave out the unit.

# Molecule, System under test, Scale unit, cell viability
data = [
    ("CCC/N=C1\\S/C(=C\\c2ccc(OC[C@H](O)CO)c(Cl)c2)C(=O)N1c1ccccc1C", "Vero E6", "%", 94),
    ("O=C1Nc2cc(Cl)c(Cl)cc2N2CCNC[C@H]12", "Vero E6", "%", 100),
]

Data request: Given the entry CC(=O)N(C)c1cc(-c2ccnc3c(C(=O)c4cccs4)cnn23)ccc1F , report its measured cell viability.
Data returned: 98.9

Data request: Consider the molecule CS(=O)(=O)c1ccc(-c2cnc(NCc3ccco3)n3cnnc23)cc1 and give its measured cell viability.
Data returned: 100

Data request: So what does the record say about cell viability for CC(C)c1c(NC(=O)Nc2ccc(Cl)cc2)c(=O)n(-c2ccccc2)n1C ?
Data returned: 96.8

Data request: GET /values?readout=cell viability&item= CN1CCc2c(c3ccccc3n2Cc2ccccc2)C1 [mebhydrolin]
Data returned: 99.4

Data request: Consider the molecule CN1C(=O)N(c2cc(Cl)cc(Cl)c2)C(=O)[C@]12CN(c1ccc(C(=O)O)cn1)C[C@H]2c1ccc(C#N)cc1 and give its measured cell viability.
Data returned: 102

Data request: So what does the record say about cell viability for C[N+]1([O-])[C@@H]2CC[C@H]1C[C@@H](OC(=O)C(CO)c1ccccc1)C2 (stereo partly drawn) [atropine-oxide] ?
Data returned: 103

Data request: Recorded cell viability of C[N+](C)(C)CC(=O)O , please.
Data returned: 100

Data request: Using the record for C[C@]12CCC(=O)C=C1CC[C@@H]1[C@@H]2[C@@H](O)C[C@@]2(C)[C@H]1CC[C@]2(O)C(=O)COP(=O)(O)O [hydrocortisone-phosphate] , report its cell viability.
Data returned: 100

Data request: What does the record list as cell viability for Cc1ccc(NC(=O)c2ccc(CN3CC[C@H](N(C)C)C3)c(C(F)(F)F)c2)cc1Nc1nccc(-c2cncnc2)n1 ?
Data returned: 98.1

Data request: So what does the record say about cell viability for CCOc1c(N2CCOCC2)cnn(C)c1=O ?
Data returned: 93.6

Data request: For CC(C)N(CCc1c[nH]c2ccccc12)C(C)C , what is its reported cell viability?
Data returned: 98.9

Data request: Fill in the blank: the reported cell viability of O=C(O)COc1cccc(CN(Cc2ccc(-n3cccn3)cc2)S(=O)(=O)c2cccnc2)c1 is ____.
Data returned: 97.2

* * *

Here the recorded cell viability is given for each entry.
- Test system: Vero E6
- Test protocol: cell viability relative to DMSO; higher = less toxic
- Experimental parameters: 72 h; 10000 nM
Respond numerically; units are % and should not be typed.

As a guide, the following entries are already answered.
# Molecule, Val
measured = [
    ("CCc1cncnc1N1CCN(Cc2nc3cc(C(F)(F)F)ccc3[nH]2)CC1", 89.9),
    ("O=C(COc1ccc(C(=O)c2ccccc2)cc1)NC1CCN(Cc2ccccc2)CC1 [adiporon]", 101),
    ("COc1cc(/C=C2\\CCC/C(=C\\c3ccc(O)c(OC)c3)C2=O)ccc1O [cyclovalone]", 108),
    ("N=C(N)NCCC[C@H](N)C(=O)O [L-arginine]", 102),
    ("CC(C)NCC(O)c1ccc(N)c(C#N)c1 (centres undefined) [cimaterol]", 99.2),
    ("O=C(O)CC(S)C(=O)O (centres undefined) [mercaptosuccinic-acid]", 99.3),
    ("CC(C)(C)C(=O)C(Oc1ccc(Cl)cc1)n1ccnc1 (centres undefined) [climbazole]", 97.1),
    ("Cn1cc(C2=C(c3cn(C4CCN(Cc5ccccn5)CC4)c4ccccc34)C(=O)NC2=O)c2ccccc21 [enzastaurin]", 98.9),
]

In the following, a different molecule is considered.
Data request: Missing value: cell viability, Vero E6, entry Cc1cc(Nc2cc(N3CCN(C)CC3)nc(Sc3ccc(NC(=O)C4CC4)cc3)n2)n[nH]1 [tozasertib] . Fill in?
Data returned: 85
